Recorded measurements of Activity, one per entry
- TARGET OR SYSTEM: DNA topoisomerase 1 (Homo sapiens) (UniProt P11387)
- Sequence (whole entry): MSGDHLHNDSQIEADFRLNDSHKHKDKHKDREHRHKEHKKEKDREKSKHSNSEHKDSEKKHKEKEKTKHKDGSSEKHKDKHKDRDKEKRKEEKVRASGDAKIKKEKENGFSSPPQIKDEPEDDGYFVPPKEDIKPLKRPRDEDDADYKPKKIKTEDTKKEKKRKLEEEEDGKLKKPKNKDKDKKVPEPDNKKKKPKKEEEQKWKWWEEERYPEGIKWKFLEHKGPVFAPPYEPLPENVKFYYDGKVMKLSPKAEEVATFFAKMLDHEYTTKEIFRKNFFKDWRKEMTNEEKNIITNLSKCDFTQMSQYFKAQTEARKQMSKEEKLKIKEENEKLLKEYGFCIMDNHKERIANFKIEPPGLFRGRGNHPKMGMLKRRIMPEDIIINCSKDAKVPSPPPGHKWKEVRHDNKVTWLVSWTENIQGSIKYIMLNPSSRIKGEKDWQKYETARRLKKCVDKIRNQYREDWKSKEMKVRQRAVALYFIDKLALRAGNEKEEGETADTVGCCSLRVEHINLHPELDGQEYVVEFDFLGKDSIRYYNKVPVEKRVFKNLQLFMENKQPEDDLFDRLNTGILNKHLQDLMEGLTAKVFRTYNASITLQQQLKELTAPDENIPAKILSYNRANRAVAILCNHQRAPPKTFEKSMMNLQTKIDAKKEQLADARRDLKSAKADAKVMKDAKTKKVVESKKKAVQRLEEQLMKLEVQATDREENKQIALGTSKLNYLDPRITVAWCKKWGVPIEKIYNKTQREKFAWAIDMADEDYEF
- TEST DESCRIPTION: Inhibition of recombinant topoisomerase 1 (unknown origin) assessed as DNA cleavage using 3'-[32P]-labeled 117-bp DNA oligonucleotide at 1 uM by PAGE assay
- Set-up: scale not given: the % may be the effect or the level left
# unit: % | format: bare number

Solved entries (count: 3):
sample_smiles=O=C1c2ccccc2-c2c1c1ccncc1c(=O)n2CCCn1ccnc1 value_observed=20
sample_smiles=O=C1c2ccccc2-c2c1c1ccc(C(F)(F)F)cc1c(=O)n2C[C@H](O)CO value_observed=20
sample_smiles=O=C1c2ccccc2-c2c1c1ccc(Br)cc1c(=O)n2C[C@H](O)CO value_observed=50

Challenge: Quick one: Activity for O=C1c2ccccc2-c2c1c1ccc([N+](=O)[O-])cc1c(=O)n2CCCn1ccnc1 ?
Response given: 100

Challenge: Can you check O=C1c2ccccc2-c2c1c1cc(C(F)(F)F)ccc1c(=O)n2C[C@H](O)CO next?
Response given: 20

Challenge: Please answer likewise for O=C1c2ccccc2-c2c1c1ccc([N+](=O)[O-])cc1c(=O)n2CCCN1CCOCC1
Response given: 70

Challenge: CSc1ccc2c3c(n(C[C@H](O)CO)c(=O)c2c1)-c1ccccc1C3=O , same question.
Response given: 20

Challenge: Further, for O=C1c2ccccc2-c2c1c1ccc(I)cc1c(=O)n2C[C@H](O)CO ?
Response given: 50

Just for reference, ChEMBL document CHEMBL3580647 is where these values come from.
